assay: Mouse pharmacokinetic test; assay type: in vivo, ICR mice; settings: plasma, po, 30 mg/kg, PO-30mpk, read-out: Tmax
Assignment: determine reported Tmax for the given molecules.
Please state the value followed by its unit.

Here's what some known entries look like.
molecule	observedMeasurement
C[C@H](Cl)COc1c(Cl)cc(C(C)(C)c2ccc(-c3ccc(OCc4ccnc(P(C)(C)=O)n4)cc3)cc2)cc1C#N	4 h
CC(C)(c1ccc(-c2ccc(OCc3ccnc(C4CN(S(C)(=O)=O)C4)n3)cc2)cc1)c1cc(Cl)c(OCCCl)c(C#N)c1	4 h

Name the recorded Tmax for CC(C)(c1ccc(-c2cnc(OCc3ccnc(N4CC([S@@](C)(=N)=O)C4)n3)cn2)cc1)c1cc(Cl)c(OCCCl)c(C#N)c1 (single isomer, unassigned) [Compound 323B] . 2.7 h
